# targetSystem: Cellular tumor antigen p53 (Homo sapiens) (UniProt P04637)
# Sequence (P04637 whole entry, looked up): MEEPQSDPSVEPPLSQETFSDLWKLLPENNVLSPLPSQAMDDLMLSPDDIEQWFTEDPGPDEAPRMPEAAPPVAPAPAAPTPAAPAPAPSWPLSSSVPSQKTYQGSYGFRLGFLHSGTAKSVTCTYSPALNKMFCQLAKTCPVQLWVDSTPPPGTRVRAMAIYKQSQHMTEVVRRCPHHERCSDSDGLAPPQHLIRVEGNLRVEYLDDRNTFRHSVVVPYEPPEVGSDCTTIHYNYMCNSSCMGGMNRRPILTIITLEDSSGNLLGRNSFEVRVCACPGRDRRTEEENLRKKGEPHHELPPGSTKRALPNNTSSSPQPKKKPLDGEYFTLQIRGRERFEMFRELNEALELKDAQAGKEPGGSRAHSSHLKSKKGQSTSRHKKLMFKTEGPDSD
# measurementNotes: TOX21_p53_BLA_p4_ratio: Tox21 HCT-116 p53 Agonism Beta-lactamase Assay, Ratio, Phase 4 (AID 2283601)
Results filed as inconclusive are left out. Calls of active or inactive are those of the source. Rule for the calls: active = hit-call score of the fitted dose curve at least 0.9, where 1 is the maximum; inconclusive = response in the unintended direction; inactive = score below 0.9.
Labels: Yes = active, No = inactive

[
  {
    "chemSmiles": "O=c1[nH]ncc2ccccc12",
    "classAssignment": "No"
  },
  {
    "chemSmiles": "NC(=O)C(c1ccccc1)(c1ccccc1)[C@@H]1CCN(CCc2ccc3c(c2)CCO3)C1",
    "classAssignment": "No"
  },
  {
    "chemSmiles": "COCC(=O)O[C@]1(CCN(C)CCCc2nc3ccccc3[nH]2)CCc2cc(F)ccc2[C@@H]1C(C)C",
    "classAssignment": "Yes"
  },
  {
    "chemSmiles": "CC(C)(C(=O)c1cccnc1)c1cccnc1",
    "classAssignment": "No"
  },
  {
    "chemSmiles": "C[C@@H]1C[C@H]2[C@@H]3CCC4=CC(=O)C=C[C@]4(C)[C@@]3(F)[C@@H](O)C[C@]2(C)[C@@]1(O)C(=O)CO",
    "classAssignment": "No"
  }
]

###

# measurementNotes: BSK_SAg_SRB: Viability Assessment in the BioMAP Diversity Plus: SAg Assay (AID 2283096);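 note: cells read one day after compound addition; hits may be either gain or loss of signal compared with DMSO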
# cond: primary human HUVEC with PBMC
The source made the active and inactive calls. The calls were made as follows: active = hit-call score of the fitted dose curve at least 0.9, where 1 is the maximum; inactive = score below 0.9.
Outcomes: active, inactive

[
  {
    "molecule": "COc1cc(CNC(=O)CCCC/C=C/C(C)C)ccc1O",
    "classAssignment": "inactive"
  },
  {
    "molecule": "CCC(C)=NO",
    "classAssignment": "inactive"
  },
  {
    "molecule": "CN(C)c1ccc(C(c2ccccc2)c2ccc(N(C)C)cc2)cc1",
    "classAssignment": "active"
  },
  {
    "molecule": "CC[N+](CC)(CC(=O)Nc1c(C)cccc1C)Cc1ccccc1",
    "classAssignment": "inactive"
  },
  {
    "molecule": "CCCCCCCCCCCCCCCCCC[N+](C)(C)C",
    "classAssignment": "active"
  },
  {
    "molecule": "Cc1cc(-n2nc3ccc(Cl)cc3n2)c(O)c(C(C)(C)C)c1",
    "classAssignment": "inactive"
  },
  {
    "molecule": "COc1ccccc1Oc1c(NS(=O)(=O)c2ccc(C(C)(C)C)cc2)nc(-c2ncccn2)nc1OCCO",
    "classAssignment": "inactive"
  },
  {
    "molecule": "Oc1cccc2ccccc12",
    "classAssignment": "inactive"
  },
  {
    "molecule": "CCCCCCC(O)CCCCCCCCCCC(=O)OC (stereo not given)",
    "classAssignment": "inactive"
  },
  {
    "molecule": "COc1ccc(C(=O)c2ccccc2O)c(O)c1",
    "classAssignment": "inactive"
  },
  {
    "molecule": "Sc1nc2ccccc2s1",
    "classAssignment": "inactive"
  },
  {
    "molecule": "CCCCCCCCCCC1CO1 (stereo not given)",
    "classAssignment": "inactive"
  },
  {
    "molecule": "Cc1cccnc1",
    "classAssignment": "inactive"
  },
  {
    "molecule": "CN(C)Cc1cc(C(C)(C)C)c(O)c(C(C)(C)C)c1",
    "classAssignment": "inactive"
  },
  {
    "molecule": "CC(C)CC(=O)CC(C)CC(C)C (stereo not given)",
    "classAssignment": "inactive"
  }
]

###

# Read-out: Interleukin-1 alpha (IL1a), IL1A (gene 3552)
# measurementNotes: BSK_KF3CT_IL1a: BioMAP Diversity Plus: KF3CT Assay for Interleukin-1 alpha (IL1a) Biomarker Activity (AID 2283070)
# cond: primary human keratinocytes with fibroblasts; actives raise or lower the signal
# Description: BSK_KF3CT is a cell-based, multiplexed-readout assay that uses keratinocytes and foreskin fibroblasts, a human skin primary cell co-culture, with measurements taken at 24 hours after chemical dosing in a 96-well plate.BSK_KF3CT_IL1a is an assay component measured in the BSK_KF3CT assay. It measures IL-1a antibody related to regulation of gene expression using ELISA technology.Data from the assay component BSK_KF3CT_IL1a was analyzed into 1 assay endpoint. […]
Active and inactive are the calls of the source. The calls were made as follows: active = hit-call score of the fitted dose curve at least 0.9, where 1 is the maximum; inactive = score below 0.9.
Outcomes: 1 (active), -1 (inactive)

[
  {
    "compound": "CCCCCCC(O)CCCCCCCCCCC(=O)OC (centres undefined)",
    "classAssignment": -1
  },
  {
    "compound": "CC(C)CC(=O)CC(C)CC(C)C (centres undefined)",
    "classAssignment": 1
  },
  {
    "compound": "CC(C)C1OCCN1CCOC(=O)NCCCCCCNC(=O)OCCN1CCOC1C(C)C (centres undefined)",
    "classAssignment": -1
  },
  {
    "compound": "CN(C)Cc1cc(C(C)(C)C)c(O)c(C(C)(C)C)c1",
    "classAssignment": -1
  },
  {
    "compound": "Cc1cccnc1",
    "classAssignment": -1
  },
  {
    "compound": "Oc1cccc2ccccc12",
    "classAssignment": -1
  },
  {
    "compound": "COC(=O)/C=C\\C(=O)OC",
    "classAssignment": -1
  },
  {
    "compound": "CC[N+](CC)(CC(=O)Nc1c(C)cccc1C)Cc1ccccc1",
    "classAssignment": -1
  },
  {
    "compound": "COc1cc(CNC(=O)CCCC/C=C/C(C)C)ccc1O",
    "classAssignment": -1
  },
  {
    "compound": "CCCCCCCCCCC1CO1 (centres undefined)",
    "classAssignment": 1
  },
  {
    "compound": "CN(C)c1ccc(C(c2ccccc2)c2ccc(N(C)C)cc2)cc1",
    "classAssignment": -1
  },
  {
    "compound": "CCCCCCCCCCCCCCCCCC[N+](C)(C)C",
    "classAssignment": 1
  },
  {
    "compound": "CCCCCCCCCC/C=C/C1CC(=O)OC1=O (centres undefined)",
    "classAssignment": -1
  },
  {
    "compound": "COc1ccc(C(=O)c2ccccc2O)c(O)c1",
    "classAssignment": -1
  }
]

###

# targetSystem: Cellular tumor antigen p53 (Homo sapiens)
# measurementNotes: TOX21_p53_BLA_p2_ratio: Tox21 HCT-116 p53 Agonism Beta-lactamase Assay, Ratio, Phase 2 (AID 2283592)
Records with an inconclusive call do not appear. Activity calls are given as the source filed them. How the source made its calls: active means hit-call score of the fitted dose curve at least 0.9, where 1 is the maximum; inconclusive means response in the unintended direction; inactive means score below 0.9.
Classes used: 1 (active), 0 (inactive)

[
  {
    "compound": "COc1c2occc2cc2ccc(=O)oc12",
    "classAssignment": 0
  },
  {
    "compound": "Oc1ccc2c(c1)OCO2",
    "classAssignment": 0
  },
  {
    "compound": "CCOC(=O)CC#N",
    "classAssignment": 0
  },
  {
    "compound": "Cc1c(Cl)cccc1Nc1ccccc1C(=O)O",
    "classAssignment": 1
  },
  {
    "compound": "CCOC(=O)COc1ccc2c(C)c(CCN(CC)CC)c(=O)oc2c1",
    "classAssignment": 0
  },
  {
    "compound": "CC[C@@]1([C@@H]2O[C@@H]([C@H]3O[C@@](O)(CO)[C@H](C)C[C@@H]3C)C[C@@H]2C)CC[C@H]([C@]2(C)CC[C@]3(C[C@H](O)[C@@H](C)[C@@H]([C@@H](C)[C@@H](OC)[C@H](C)C(=O)O)O3)O2)O1 (stereo in doubt)",
    "classAssignment": 0
  },
  {
    "compound": "CCCCC[C@H](O)/C=C/[C@H]1[C@H](O)CC(=O)[C@@H]1C/C=C\\CCCC(=O)O",
    "classAssignment": 0
  },
  {
    "compound": "OC(CN1CCC(Cc2ccc(F)cc2)CC1)c1ccc(Cl)cc1 (configuration not stated)",
    "classAssignment": 0
  },
  {
    "compound": "O=C(O)c1cc(N=Nc2ccc([N+](=O)[O-])cc2)ccc1O",
    "classAssignment": 0
  },
  {
    "compound": "C[C@@H](NCCCc1cccc(C(F)(F)F)c1)c1cccc2ccccc12",
    "classAssignment": 1
  },
  {
    "compound": "COC(=O)C1=C(C)NC(C)=C(C(=O)O[C@@H]2CCCN(Cc3ccccc3)C2)[C@@H]1c1cccc([N+](=O)[O-])c1",
    "classAssignment": 0
  },
  {
    "compound": "CC1=C(C(=O)O)N2C(=O)[C@@H](NC(=O)[C@H](N)c3ccc(O)cc3)[C@H]2SC1",
    "classAssignment": 0
  },
  {
    "compound": "C=CC1CO1 (configuration not stated)",
    "classAssignment": 0
  },
  {
    "compound": "C=CCCC=C",
    "classAssignment": 0
  },
  {
    "compound": "C=CN1CCCCCC1=O",
    "classAssignment": 0
  },
  {
    "compound": "CC1(C)S[C@@H]2[C@H](NC(=O)C(N)c3ccccc3)C(=O)N2[C@H]1C(=O)OC1OC(=O)c2ccccc21 (some centres not stated)",
    "classAssignment": 0
  },
  {
    "compound": "Oc1ccc(N=Nc2ccccc2)cc1",
    "classAssignment": 1
  },
  {
    "compound": "CC(C)=CCC/C(C)=C/CC/C(C)=C/CC/C(C)=C/CC1=C(C)C(=O)c2ccccc2C1=O",
    "classAssignment": 0
  },
  {
    "compound": "SC1CCCCC1",
    "classAssignment": 0
  },
  {
    "compound": "COc1ccc(C(=O)CC(=O)c2ccc(C(C)(C)C)cc2)cc1",
    "classAssignment": 1
  },
  {
    "compound": "C=CC(=O)OCC[N+](C)(C)C",
    "classAssignment": 0
  },
  {
    "compound": "COc1cc([C@H]2Oc3cc([C@H]4Oc5cc(O)cc(O)c5C(=O)[C@@H]4O)ccc3O[C@@H]2CO)ccc1O",
    "classAssignment": 1
  }
]
